- Experiment Summary: Permeability
- Condition Info: human, pH 7.4
Property Label: Papp at 2 h, 0.25 µCi/mL

>>> readout_value("OC[C@@H](O)[C@@H](O)[C@H](O)[C@H](O)CO [[^14C] Mannitol, Mannitol]")
"24.7 ×10⁻⁶ cm/s"

These entries and their values trace back to paper PMC2914114.
